- Tgt: BCDIN3D (Homo sapiens, UniProt Q7Z5W3)
- Sequence (Q7Z5W3 whole entry): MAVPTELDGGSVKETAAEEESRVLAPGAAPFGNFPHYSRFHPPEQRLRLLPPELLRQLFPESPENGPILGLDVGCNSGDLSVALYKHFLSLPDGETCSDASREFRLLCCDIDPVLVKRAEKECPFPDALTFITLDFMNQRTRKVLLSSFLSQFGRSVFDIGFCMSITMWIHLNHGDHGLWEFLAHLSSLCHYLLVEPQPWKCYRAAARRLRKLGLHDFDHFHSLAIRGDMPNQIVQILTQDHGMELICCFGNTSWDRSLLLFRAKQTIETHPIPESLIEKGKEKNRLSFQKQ
- Assay Summary: BCDIN3D IC50 RFMS (RapidFire) assay with mini-helix
- Type: biochemical
- Run Conditions: mini-helix substrate 0.2 μM, SAM 6 μM, 25 nM enzyme
Param label: returns true (1) when IC50 < 400 nM, returns false (0) otherwise, including exact equality.

Check out these entries, answers already filled in.
Cc1nn(C)c2nc(NCC(N)c3ccccc3)nc(Nc3ccc(C(F)(F)F)cc3)c12 (stereo not drawn)	true (1)
COc1ccc(Nc2nc(NCC3(N)CC3)nc3c2cnn3C)cc1	true (1)
Cn1ncc2c(Nc3ccc(OC(F)F)cc3)nc(NC[C@H](N)c3ccccc3)nc21	true (1)
Cn1ncc2c(Nc3cccc(OC(F)F)c3)nc(NCC3(N)CC3)nc21	false (0)
Cn1ncc2c(NC3CC(Cl)(Cl)C3)nc(NC[C@H](N)c3ccccc3)nc21	true (1)

Is it true that IC50 reported for CNc1nc(NCC(N)c2cccc(C#N)c2)nc2c1cnn2C (stereo not drawn) is less than 400 nM?
false (0)

Is it true that IC50 reported for `Cn1ncc2c(NC(C)(C)C3CC3)nc(NC[C@H](N)c3ccccc3)nc21` is less than 400 nM?
true (1)

Is it true that IC50 reported for Cn1ncc2c(NC(C)(C)C)nc(NCC(N)c3cccc(Br)c3)nc21 (stereo not drawn) is less than 400 nM?
true (1)

Is it true that IC50 reported for `Cn1ncc2c(NC3(C)CCOCC3)nc(NC[C@H](N)c3ccccc3)nc21` is less than 400 nM?
false (0)

Is it true that IC50 reported for Cn1ncc2c(Nc3ccc(OC(F)F)cc3)nc(NCC(C)(N)c3ccccc3)nc21 (stereo not drawn) is less than 400 nM?
true (1)

Is it true that IC50 reported for `Cn1ncc2c(Nc3cccc(F)c3)nc(NCC3(N)CC3)nc21` is less than 400 nM?
false (0)

Is it true that IC50 reported for `Cn1ncc2c(Nc3ccc(C(F)(F)F)nc3)nc(NCC3(N)CC3)nc21` is less than 400 nM?
false (0)

Is it true that IC50 reported for `Cn1ncc2c(Nc3ccc(Cl)c(F)c3)nc(NCC3(N)CC3)nc21` is less than 400 nM?
true (1)

Is it true that IC50 reported for Cn1ncc2c(Nc3ccc(C(F)(F)F)cc3)nc(NCC(N)c3ccccc3Cl)nc21 (stereo not drawn) is less than 400 nM?
true (1)

Is it true that IC50 reported for `Cn1ncc2c(NCc3ccc(Br)cc3)nc(NCC3(N)CC3)nc21` is less than 400 nM?
true (1)

Is it true that IC50 reported for Cn1ncc2c(NC3CC(F)(F)C3)nc(NCC(N)c3cccnc3)nc21 (stereo not drawn) is less than 400 nM?
false (0)

Is it true that IC50 reported for `Cn1ncc2c(NCC3CCC3)nc(NC[C@H](N)c3ccccc3)nc21` is less than 400 nM?
true (1)

Is it true that IC50 reported for Cn1ncc2c(NC(C)(C)C)nc(NCC(N)c3ccccc3Cl)nc21 (stereo not drawn) is less than 400 nM?
false (0)
